# Assay Overview: Pharmacokinetics after intravenous and oral treatment, plasma LC-MS/MS
# Format: in vivo, male Han Wistar rats
# Measurement Conditions: male, Han Wistar, plasma; rat, iv, 1 mg/kg; extrapolated, indicative only
Assign half-life to each entry below.
Output should be the measured figure followed by the unit it is expressed in.

Compound	half-life
O=C(O)c1ccc(C2(NC(=O)C3CC(F)(F)CCN3Cc3ccc(C(F)(F)F)cc3)CC2)cc1 (single isomer, unassigned) [Example E18]	9.3 h

# evaluate next
stdin: Quick check: half-life of O=C(O)c1ccc(C2(NC(=O)[C@H]3CC(F)(F)CCN3Cc3ccc(C(F)(F)F)cc3)CC2)cc1 [Example E17] ?
stdout: 7.3 h

###

# Assay Overview: Pharmacokinetics after intravenous and oral treatment, plasma LC-MS/MS
# Format: in vivo, male Han Wistar rats
# Measurement Conditions: male, Han Wistar, plasma; rat, iv, 5 mg/kg; extrapolated, indicative only; read-out: Vss*
Recorded Endpoint: Vd (L)
Give bare numbers, in L.

stdin: Endpoint output: Vd of O=C(O)c1ccc(C2(NC(=O)C3CC4(CCN3Cc3ccc(C(F)(F)F)cc3)CC4)CC2)cc1 (single isomer, unassigned) . Value?
stdout: 0.395

###

# Target Or Test System: hEP4 receptors (Homo sapiens)
# Construct: membrane fraction used
# Sequence (P35408 whole entry): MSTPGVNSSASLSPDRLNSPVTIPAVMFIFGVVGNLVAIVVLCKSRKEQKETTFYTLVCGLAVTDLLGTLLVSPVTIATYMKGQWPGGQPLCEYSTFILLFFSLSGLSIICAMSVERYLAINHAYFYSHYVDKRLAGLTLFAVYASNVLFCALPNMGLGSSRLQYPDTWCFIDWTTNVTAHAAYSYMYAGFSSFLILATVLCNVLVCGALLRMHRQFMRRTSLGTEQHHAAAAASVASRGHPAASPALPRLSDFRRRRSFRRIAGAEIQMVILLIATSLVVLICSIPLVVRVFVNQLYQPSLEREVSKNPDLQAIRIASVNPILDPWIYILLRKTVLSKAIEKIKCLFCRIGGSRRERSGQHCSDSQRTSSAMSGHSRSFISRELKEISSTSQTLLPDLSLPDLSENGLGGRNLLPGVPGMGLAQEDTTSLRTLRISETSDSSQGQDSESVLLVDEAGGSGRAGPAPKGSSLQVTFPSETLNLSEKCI
# Assay Overview: [3H]-Prostaglandin E2 membrane binding assay
# Measurement Conditions: human EP4/HEK293 transfectant membranes, 1nM [3H]-PGE2; Ki from IC50 by Cheng-Prousoff; pKi = -log10 Ki (M)
Would you mind telling me the reported Ki of each entry?
One number for each entry, in M.

Observe how each entry below is paired with its result.
Molecule	Recorded Endpoint	Numeric Value
O=C(O)c1ccc(C2(NC(=O)[C@H]3C[C@H]4C[C@H]4N3Cc3ccc(C(F)(F)F)cc3)CC2)cc1 [Example E30]	Ki	5.01e-09
C[C@H](NC(=O)[C@H]1CC(F)(F)CCN1Cc1ccc(C(F)(F)F)cc1)c1ccc(C(=O)O)cc1 [Example E16]	Ki	2e-08
C[C@H](NC(=O)C1CC(C)(C)CCN1Cc1ccc(C(F)(F)F)cc1)c1ccc(C(=O)O)cc1 (single isomer, unassigned) [Example E13]	Ki	1.26e-08

stdin: Find the recorded Ki belonging to O=C(O)c1ccc(C2(NC(=O)C3CC4(CCN3Cc3cccc(C(F)(F)F)c3)CC4)CC2)cc1 (single isomer, unassigned) [Example E9] and report it.
stdout: 6.31e-09

###

# Assay Overview: Pharmacokinetics after intravenous and oral treatment, plasma LC-MS/MS
# Assay type: in vivo, male Han Wistar rats
# Measurement Conditions: male, Han Wistar, rat, plasma, po, 1 mg/kg
Recorded Endpoint: bioavailability (%)
Give bare numbers, in %.

Compound	bioavailability [%]
O=C(O)c1ccc(C2(NC(=O)C3CC(F)(F)CCN3Cc3ccc(C(F)(F)F)cc3)CC2)cc1 (single isomer, unassigned) [Example E18]	93

Now look at this entry.
stdin: Need bioavailability, item O=C(O)c1ccc(C2(NC(=O)[C@H]3CC(F)(F)CCN3Cc3ccc(C(F)(F)F)cc3)CC2)cc1 [Example E17]
stdout: 85

###

# Assay Overview: Pharmacokinetics after intravenous and oral treatment, plasma LC-MS/MS
# Format: in vivo, male Han Wistar rats
# Measurement Conditions: male, Han Wistar, plasma; rat, iv, 5 mg/kg; extrapolated to infinity
Recorded Endpoint: AUC(0-inf) (ng·h/mL)
Answers are plain numbers, in ng·h/mL.

stdin: AUC(0-inf) for O=C(O)c1ccc(C2(NC(=O)C3CC4(CCN3Cc3ccc(C(F)(F)F)cc3)CC4)CC2)cc1 (single isomer, unassigned) ?
stdout: 31800
